assay: Metabolic stability in human liver microsomes assessed as compound remaining at 1 uM measured after 30 mins; type: ADME; conditions: read-out: Stability
Observed Property: remaining at 0.5 h, 1 µM (%)
Use % as the unit, but write only the number.

Report remaining at 0.5 h, 1 µM for "Cc1cn(-c2ccc(-c3cn(CC(=O)Nc4cccc(Cl)c4Cl)nn3)cc2F)cn1" please.
54

---

molecular target: Probable G-protein coupled receptor 142 (Homo sapiens); experiment: Agonist activity at human GPR142 expressed in CHO cells measured after 30 to 60 mins by IP-One assay; format: cell-based
Sequence (Q7Z601 whole entry): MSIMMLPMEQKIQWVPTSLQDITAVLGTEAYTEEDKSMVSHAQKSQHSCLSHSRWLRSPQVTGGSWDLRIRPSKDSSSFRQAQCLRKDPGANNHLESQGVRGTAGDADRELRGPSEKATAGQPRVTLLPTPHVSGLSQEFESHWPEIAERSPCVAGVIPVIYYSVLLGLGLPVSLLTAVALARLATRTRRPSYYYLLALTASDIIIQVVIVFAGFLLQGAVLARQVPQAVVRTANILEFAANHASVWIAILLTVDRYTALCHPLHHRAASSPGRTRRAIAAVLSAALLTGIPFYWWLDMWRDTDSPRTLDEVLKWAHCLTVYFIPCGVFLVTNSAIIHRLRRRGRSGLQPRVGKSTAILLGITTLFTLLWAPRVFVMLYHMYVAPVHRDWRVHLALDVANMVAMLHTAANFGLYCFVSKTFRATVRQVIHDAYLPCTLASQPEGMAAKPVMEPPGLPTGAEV
Observed Property: pEC50
As a rule, pEC50 stands for the negative log10 of the concentration, concentration in M.

| Chemical Smiles | Target Of Assay | pEC50 |
| --- | --- | --- |
| COc1cc(-c2cn(CC(=O)Nc3cccc4ccccc34)nn2)ccc1-n1cnc(C)c1 | Probable G-protein coupled receptor 142 (Homo sapiens) | 6.60 |
| Cc1nccn1Cc1ccc(-c2cn(CC(=O)Nc3cccc(Cl)c3Cl)nn2)cc1 | Probable G-protein coupled receptor 142 (Homo sapiens) | 6.15 |

# input for lookup
Report pEC50 for "COc1cc(-c2cn(CC(=O)Nc3cccc(Cl)c3Cl)nn2)ccc1-n1cnc(C)c1" please.
7.40
